# Tested on: A498 renal
# test method notes: NCI-60 one-dose screen, 48 h
# assay context: 10 µM unless noted
Compounds without any hit were thinned out: in the full panel of roughly 83,000, 20% have a hit. The source made the active and inactive calls. How the source made its calls: active means growth percent below 10; inactive means the rest.
Labels: active, inactive

[
  {
    "molecule": "N=c1c2ccccc2nc2n1CCCCC2",
    "target entity": "A498 renal",
    "class assignment": "inactive"
  },
  {
    "molecule": "Cc1ccc(C2CC3c4ccccc4C2C2CCCCN32)cc1 (stereo unspecified)",
    "target entity": "A498 renal",
    "class assignment": "inactive"
  },
  {
    "molecule": "CCOC(=O)c1cnc2ccc(OC)cc2c1Nc1cccc(S(=O)(=O)NC)c1",
    "target entity": "A498 renal",
    "class assignment": "inactive"
  },
  {
    "molecule": "CSc1[nH]c2ncnc(N)c2c1C#N",
    "target entity": "A498 renal",
    "class assignment": "inactive"
  },
  {
    "molecule": "COc1ccc(S(=O)(=O)NCCCNc2cc(-c3c(-c4cccc(OC)c4)nc4sccn34)ccn2)cc1",
    "target entity": "A498 renal",
    "class assignment": "inactive"
  },
  {
    "molecule": "CN1CCN(Cc2ccc(NC(=O)c3[nH]ncc3Nc3ccnc4ccsc34)cc2)CC1",
    "target entity": "A498 renal",
    "class assignment": "inactive"
  },
  {
    "molecule": "NC1=CSC2=N/C(=C\\c3ccc(Cl)cc3)C(=O)N12",
    "target entity": "A498 renal",
    "class assignment": "inactive"
  },
  {
    "molecule": "Cc1cc2c(cc1C)NC1=C(N2)OC(c2c3ccccc3cc3ccccc23)C1=O (stereo unspecified)",
    "target entity": "A498 renal",
    "class assignment": "inactive"
  },
  {
    "molecule": "COc1cc(NCCCCCN=C(N)NC(N)=NC(C)C)c2ncccc2c1",
    "target entity": "A498 renal",
    "class assignment": "inactive"
  },
  {
    "molecule": "COc1cc2c(cc1O)CCc1cc(O)cc(OC)c1-2",
    "target entity": "A498 renal",
    "class assignment": "inactive"
  },
  {
    "molecule": "Cc1ccc2c(c1)C(=O)c1c-2c(OCCCN(C)C)nc2ccccc12",
    "target entity": "A498 renal",
    "class assignment": "inactive"
  },
  {
    "molecule": "CCCCCN(CCCCC)CCC[C@@H](C)[C@H]1CC[C@H]2[C@@H]3[C@H](OCCCN)C[C@@H]4C[C@H](OCCCN)CC[C@]4(C)[C@H]3C[C@H](OCCCN)[C@]12C",
    "target entity": "A498 renal",
    "class assignment": "inactive"
  },
  {
    "molecule": "O=C(O)c1cccc2c1-c1ccccc1C2=O",
    "target entity": "A498 renal",
    "class assignment": "inactive"
  },
  {
    "molecule": "CN1CCN(c2ccc3nc(-c4ccc5nc(-c6ccc(OCCC(C)(C)C)cc6)[nH]c5c4)[nH]c3c2)CC1",
    "target entity": "A498 renal",
    "class assignment": "inactive"
  },
  {
    "molecule": "CCN(CC)CC#CCOC(=O)[C@]1(C)CCC[C@@]2(C)[C@H]1CC(C=O)=C1C=C(C(C)C)CC[C@@H]12",
    "target entity": "A498 renal",
    "class assignment": "inactive"
  },
  {
    "molecule": "O=c1cc(-c2ccccc2)[nH]c2ccccc12",
    "target entity": "A498 renal",
    "class assignment": "inactive"
  },
  {
    "molecule": "CC1(C)OCC2OC3(C(=O)O)OC(C)(C)OC3C2O1 (stereo unspecified)",
    "target entity": "A498 renal",
    "class assignment": "inactive"
  },
  {
    "molecule": "O=C1c2cccnc2C(=O)c2c1c(C(=O)OCCN1CCOCC1)c1ccccn21",
    "target entity": "A498 renal",
    "class assignment": "active"
  },
  {
    "molecule": "CCCCCCCCCCCCCCCCNCCC[C@@H](C)[C@H]1CC[C@H]2[C@@H]3[C@H](OCCCN)C[C@@H]4C[C@H](OCCCN)CC[C@]4(C)[C@H]3C[C@H](OCCCN)[C@]12C",
    "target entity": "A498 renal",
    "class assignment": "active"
  },
  {
    "molecule": "CCOC(=O)C(Cc1cc(I)c(O)c(I)c1)NC(=O)c1ccccc1 (stereo unspecified)",
    "target entity": "A498 renal",
    "class assignment": "inactive"
  },
  {
    "molecule": "CCN(CC)CCC(=O)c1ccc(OC)c2ccccc12",
    "target entity": "A498 renal",
    "class assignment": "inactive"
  }
]

----------
Collected growth values appear next to each entry.
# Test system: MDA-MB-231 breast
# test method notes: NCI-60 one-dose screen, 48 h (100 = growth as untreated, 0 = no growth, -100 = all killed)
# assay context: 10 µM unless noted
Compounds without any hit were thinned out: in the full panel of roughly 83,000, 20% have a hit. The source made the active and inactive calls. How the source made its calls: active means growth percent below 10; inactive means the rest.

[
  {
    "compound": "COc1ccc(CN2C(=O)/C(=C\\c3cc(OC)c(OC)c(OC)c3)c3cc(OC)ccc32)cc1",
    "growth": "11.1% (inactive)"
  },
  {
    "compound": "CN(C)CCCC(=O)Nc1ccc(Cn2nnc3c2C(=O)c2nnn(Cc4ccc(NC(=O)CCCN(C)C)cc4)c2C3=O)cc1",
    "growth": "3.74% (active)"
  },
  {
    "compound": "CC1=C(NCCN2CCCC2)C(=O)c2c(OCc3cccc(Cl)c3)cccc2C1=O",
    "growth": "62.8% (inactive)"
  },
  {
    "compound": "CCN(CC)CC(C)Nc1ccc([N+](=O)[O-])c2sc3ccccc3c(=O)c12 (stereo unspecified)",
    "growth": "51.5% (inactive)"
  },
  {
    "compound": "CCCCNC(=O)NS(=O)(=O)c1ccc(N2N=C(c3cc(C)ccc3C)CC2c2cc(OC)c(OC)c(OC)c2)cc1 (stereo unspecified)",
    "growth": "79.4% (inactive)"
  },
  {
    "compound": "O=C(NCc1cccc(C(F)(F)F)c1)[C@H](CCC(=O)N1CCN(C2CCCCC2)CC1)N1C(=O)[C@@H](N2C(=O)OC[C@@H]2c2ccccc2)[C@H]1/C(Cl)=C/c1ccccc1",
    "growth": "33.1% (inactive)"
  },
  {
    "compound": "CCN(CC)CCCC(C)Nc1ccnc2c(OC)cccc12 (stereo unspecified)",
    "growth": "107% (inactive)"
  },
  {
    "compound": "CNC(=O)c1cc(Oc2ccc3nc(NC(=O)Nc4ccc(N5CCC(N(C)C)CC5)cc4)sc3c2)ccn1",
    "growth": "85.6% (inactive)"
  },
  {
    "compound": "COc1cnc2c(c1)C(=O)c1c-2n(CCCN2CCN(C)CC2)c(=O)c2cc([N+](=O)[O-])ccc12",
    "growth": "-72.3% (active)"
  },
  {
    "compound": "CCCCCC(=O)Oc1ccc(/C(=C(\\C)c2ccccc2)c2ccc(OCCN(CC)CC)cc2)cc1",
    "growth": "84.8% (inactive)"
  },
  {
    "compound": "CCCCCCCCCCCCCCCCNCCC[C@@H](C)[C@H]1CC[C@H]2[C@@H]3[C@H](OCCCN)C[C@@H]4C[C@H](OCCCN)CC[C@]4(C)[C@H]3C[C@H](OCCCN)[C@]12C",
    "growth": "-98.2% (active)"
  },
  {
    "compound": "COc1ccc(/C=C/C(=O)c2c(O)c(C)c(O)c3c2OC2=CC(O)=C(C(C)=O)C(=O)[C@]23C)cc1",
    "growth": "-26.2% (active)"
  },
  {
    "compound": "CC(=O)OCC1OC(OC2=C(CC=C(Cl)Cl)C(=O)c3ccccc3C2=O)C(OC(C)=O)C(OC(C)=O)C1OC(C)=O (stereo unspecified)",
    "growth": "69.5% (inactive)"
  },
  {
    "compound": "CCN(CC)CCC(=O)Nc1ccc(Cn2nnc3c2C(=O)c2nnn(Cc4ccc(NC(=O)CCN(CC)CC)cc4)c2C3=O)cc1",
    "growth": "-5.66% (active)"
  },
  {
    "compound": "Cc1cc(N/N=C/c2nc(-c3ccc(Cl)cc3)oc2C)c2cc(Br)ccc2n1",
    "growth": "70.4% (inactive)"
  },
  {
    "compound": "COc1ccc(-c2csc(NC(=O)CN3CCN(c4cc5c(cc4F)c(=O)c(C(=O)O)cn5C4CC4)CC3)n2)cc1",
    "growth": "11.9% (inactive)"
  }
]

Source of measurements: PubChem BioAssay (NCI)
